All values here come from patent EP1070068B2.

Protein target, amino acids: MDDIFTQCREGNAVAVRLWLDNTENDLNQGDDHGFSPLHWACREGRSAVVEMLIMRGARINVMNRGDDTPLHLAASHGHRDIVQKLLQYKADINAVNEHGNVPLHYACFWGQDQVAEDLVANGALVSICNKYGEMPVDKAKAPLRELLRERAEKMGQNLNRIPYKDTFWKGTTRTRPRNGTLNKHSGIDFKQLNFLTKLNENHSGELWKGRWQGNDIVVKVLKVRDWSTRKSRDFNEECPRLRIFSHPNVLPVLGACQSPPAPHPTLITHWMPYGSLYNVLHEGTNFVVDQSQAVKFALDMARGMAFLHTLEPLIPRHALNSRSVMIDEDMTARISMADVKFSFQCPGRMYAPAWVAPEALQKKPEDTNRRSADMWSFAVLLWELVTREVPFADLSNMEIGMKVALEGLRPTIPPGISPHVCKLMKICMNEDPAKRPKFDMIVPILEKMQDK
pIC50: −log10 of the molar value.
Listed here: items and their measured pIC50.

INSERT INTO measurements (compound, value_observed) VALUES
  ('O=C1NC(=O)c2c1c1c3ccccc3[nH]c1n1cncc21 [Isogranulatimide]', '< 4.30');

query: Query (compound): O=C1NC(=O)c2c1c1[nH]cnc1c1[nH]c3ccccc3c21 [Granulatimide] ; field requested: pIC50
result: < 4.30

====

Molecular target: GSK3b (Homo sapiens)
Sequence (P49841 whole entry, species assumed): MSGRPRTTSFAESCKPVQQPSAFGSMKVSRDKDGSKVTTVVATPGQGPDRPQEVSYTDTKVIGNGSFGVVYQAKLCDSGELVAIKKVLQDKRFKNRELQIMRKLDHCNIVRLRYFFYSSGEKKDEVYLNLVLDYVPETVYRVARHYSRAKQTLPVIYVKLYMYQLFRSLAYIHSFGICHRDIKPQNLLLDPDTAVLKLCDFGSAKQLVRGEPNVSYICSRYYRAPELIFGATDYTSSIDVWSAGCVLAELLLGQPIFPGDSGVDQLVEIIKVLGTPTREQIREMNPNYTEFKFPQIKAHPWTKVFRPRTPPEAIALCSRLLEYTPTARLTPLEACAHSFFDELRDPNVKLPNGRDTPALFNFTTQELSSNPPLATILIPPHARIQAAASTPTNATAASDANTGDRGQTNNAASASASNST
Test: Protein kinase inhibition assay (γ-32P ATP, peptide substrate)
Type: biochemical
Conditions: room temperature, 15 minutes
Experimental: The GSK3β peptide substrate used was […] (PO4H2)EDEE-amide. The ILK1 substrate is […]-amide. 100% DMSO was used as a negative control. Kinase reactions are performed at room temperature. The reaction mixture contains diluted test compound, the protein kinase, substrate and γ-^32P ATP. The mixture is incubated for 15 minutes, and the reaction mix spotted, and counted.
Listed here: items and their measured pIC50.
Bear in mind: pIC50 is minus log10 of a mol/L concentration; give just that figure.

query: Query (compound): O=C1NC(=O)c2c1c1[nH]cnc1c1[nH]c3ccccc3c21 [Granulatimide] ; field requested: pIC50
result: 5.70

query: Query (compound): "O=C1NC(=O)c2c1c1c3ccccc3[nH]c1c1cncn21" ; field requested: pIC50
result: 7.00

query: Query (compound): O=C1NC(=O)c2c1c1c3ccccc3[nH]c1n1cncc21 [Isogranulatimide] ; field requested: pIC50
result: 6.30

query: Query (compound): "O=C1NC(=O)c2c1c1c3ccccc3[nH]c1c1nccn21" ; field requested: pIC50
result: 4.60

query: Query (compound): "O=C1NC(=O)c2c1c1c3ccccc3[nH]c1n1ccnc21" ; field requested: pIC50
result: 5.30

====

Target: CDK1 (Homo sapiens, UniProt P06493)
Sequence (P06493 whole entry, species assumed): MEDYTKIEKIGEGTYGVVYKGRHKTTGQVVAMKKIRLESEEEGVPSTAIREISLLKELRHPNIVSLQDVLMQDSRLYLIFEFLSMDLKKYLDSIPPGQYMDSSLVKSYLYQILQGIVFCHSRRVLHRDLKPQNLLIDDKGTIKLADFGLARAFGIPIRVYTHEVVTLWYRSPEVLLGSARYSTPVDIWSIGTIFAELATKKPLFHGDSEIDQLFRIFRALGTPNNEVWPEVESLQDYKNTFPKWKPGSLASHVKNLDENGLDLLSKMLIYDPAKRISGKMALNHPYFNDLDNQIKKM
Sequence (P14635 whole entry partner, species assumed): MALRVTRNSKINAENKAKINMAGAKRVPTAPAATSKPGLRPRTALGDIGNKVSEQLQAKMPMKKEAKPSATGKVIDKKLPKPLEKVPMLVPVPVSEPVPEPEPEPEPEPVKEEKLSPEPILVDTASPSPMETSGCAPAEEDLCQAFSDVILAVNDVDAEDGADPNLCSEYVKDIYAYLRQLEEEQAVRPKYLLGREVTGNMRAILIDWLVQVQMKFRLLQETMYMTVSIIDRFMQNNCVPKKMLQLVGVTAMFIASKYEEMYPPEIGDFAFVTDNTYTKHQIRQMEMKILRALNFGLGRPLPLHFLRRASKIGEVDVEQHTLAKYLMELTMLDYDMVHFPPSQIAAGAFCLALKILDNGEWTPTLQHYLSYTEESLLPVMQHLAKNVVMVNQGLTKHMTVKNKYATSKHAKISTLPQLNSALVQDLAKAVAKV
VALUE_TYPE: IC50 (nM)
Lab book: enter the figure in nM, no units written.

INSERT INTO assay_data (molecule, value_observed) VALUES
  ('O=C1NC(=O)c2c1c1c3ccccc3[nH]c1c1cncn21 [compound 50]', 500);

Kindly review the next molecule as well.
query: Query (molecule): O=C1NC(=O)c2c1c1[nH]cnc1c1[nH]c3ccccc3c21 [Granulatimide] ; field requested: IC50
result: 2000
